Target: UniProt Q9H244
Experiment: Displacement of [3H]2MeSADP from human P2Y12 expressed in U2OS cell membranes incubated for 60 mins by scintillation counting method
Design: species or system Membrane
measured metric: Ki (µM)
Give bare numbers, in µM.

*Q* So what's the measured Ki for this one? "O=C(/C=C/c1ccc(O)c2c1[C@H](C(=O)O[C@H](Cc1ccc(O)c(O)c1)C(=O)O)[C@@H](c1ccc(O)c(O)c1)O2)O[C@H](Cc1ccc(O)c(O)c1)C(=O)O"
*A* 36.4

---

Molecular target: P2Y purinoceptor 12 (Homo sapiens)
Sequence (Q9H244 whole entry): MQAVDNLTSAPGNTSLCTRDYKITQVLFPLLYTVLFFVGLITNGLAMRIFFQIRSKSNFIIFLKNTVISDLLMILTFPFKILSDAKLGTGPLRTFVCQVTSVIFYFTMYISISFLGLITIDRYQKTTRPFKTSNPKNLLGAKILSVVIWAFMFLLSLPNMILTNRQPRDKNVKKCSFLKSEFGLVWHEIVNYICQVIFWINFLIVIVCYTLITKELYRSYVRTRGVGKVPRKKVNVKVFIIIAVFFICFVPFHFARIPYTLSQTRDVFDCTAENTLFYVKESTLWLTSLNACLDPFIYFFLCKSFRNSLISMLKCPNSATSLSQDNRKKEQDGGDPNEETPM
Test: Binding affinity to P2Y12 (unknown origin)
measured metric: pIC50
Give bare numbers, as −log10 of the molar value.

*Q* Please report the recorded pIC50 for "Cc1cnc(-c2cnc(N3CCN(C(=O)NS(=O)(=O)c4ccccc4)CC3)c(Cl)c2)o1" .
*A* 6.49
